tested on: MCF-7; experiment: MTT cytotoxicity assay, MCF-7; format: cell-based; conditions: Homo sapiens, MCF7, read-out: IC50, μM MCF-7
Friendly reminder: IC50 below 10 µM is Y, at or above is N.

[[record]]
molecule = "O=C(COc1ccccc1C1=Nn2c(nnc2-c2ccccc2)SC1)NCCCCNC(=O)COc1ccccc1C1=Nn2c(nnc2-c2ccccc2)SC1"
experimentaltarget = "MCF-7"
cat = "N"

[[record]]
molecule = "O=C(COc1ccc(C2=Nn3c(nnc3-c3ccccc3)SC2)cc1)NCCNC(=O)COc1ccc(C2=Nn3c(nnc3-c3ccccc3)SC2)cc1"
experimentaltarget = "MCF-7"
cat = "N"

[[record]]
molecule = "O=C(COc1ccc(C2=Nn3c(nnc3-c3ccccc3)SC2)cc1)NCCCCNC(=O)COc1ccc(C2=Nn3c(nnc3-c3ccccc3)SC2)cc1"
experimentaltarget = "MCF-7"
cat = "N"

[[record]]
molecule = "O=C(COc1ccccc1C1=Nn2c(nnc2-c2ccccc2)SC1)NCCNC(=O)COc1ccccc1C1=Nn2c(nnc2-c2ccccc2)SC1"
experimentaltarget = "MCF-7"
cat = "N"

[[record]]
molecule = "O=C(COc1ccccc1C1=Nn2c(Cc3ccccc3)nnc2SC1)NCCCNC(=O)COc1ccccc1C1=Nn2c(Cc3ccccc3)nnc2SC1"
experimentaltarget = "MCF-7"
cat = "N"

[[record]]
molecule = "O=C(COc1ccccc1C1=Nn2cnnc2SC1)NCCCCNC(=O)COc1ccccc1C1=Nn2cnnc2SC1"
experimentaltarget = "MCF-7"
cat = "Y"

[[record]]
molecule = "O=C(COc1ccc(C2=Nn3c(Cc4ccccc4)nnc3SC2)cc1)NCCNC(=O)COc1ccc(C2=Nn3c(Cc4ccccc4)nnc3SC2)cc1"
experimentaltarget = "MCF-7"
cat = "N"

[[record]]
molecule = "Cc1cc2ncc(-c3ccc(OCC(=O)NCCNC(=O)COc4ccc(-c5cnc6cc(C)c(C)cc6n5)cc4)cc3)nc2cc1C [10b]"
experimentaltarget = "MCF-7"
cat = "N"

[[record]]
molecule = "C#Cc1cccc(Nc2ncnc3cc(OCCOC)c(OCCOC)cc23)c1 [Erlotinib, reference compound]"
experimentaltarget = "MCF-7"
cat = "Y"

[[record]]
molecule = "Cc1cc2ncc(-c3ccccc3OCC(=O)NCCCCNC(=O)COc3ccccc3-c3cnc4cc(C)c(C)cc4n3)nc2cc1C [10e]"
experimentaltarget = "MCF-7"
cat = "N"

[[record]]
molecule = "Cc1nnc2n1N=C(c1ccccc1OCC(=O)NCCNC(=O)COc1ccccc1C1=Nn3c(C)nnc3SC1)CS2"
experimentaltarget = "MCF-7"
cat = "Y"

[[record]]
molecule = "O=C(COc1ccccc1-c1cnc2ccccc2n1)NCCNC(=O)COc1ccccc1-c1cnc2ccccc2n1 [10c]"
experimentaltarget = "MCF-7"
cat = "Y"

[[record]]
molecule = "O=C(COc1ccc(C2=Nn3c(nnc3-c3ccccc3)SC2)cc1)NCCCNC(=O)COc1ccc(C2=Nn3c(nnc3-c3ccccc3)SC2)cc1"
experimentaltarget = "MCF-7"
cat = "N"

[[record]]
molecule = "O=C(COc1ccc(-c2cnc3ccccc3n2)cc1)NCCCNC(=O)COc1ccc(-c2cnc3ccccc3n2)cc1 [10d]"
experimentaltarget = "MCF-7"
cat = "N"


Source: paper PMC9389373
